Where do these numbers come from? They come from patent US8507683B2.

test system: genotype 1a HCV replicon in Huh-7 cells; experiment: HCV replicon luciferase assay, genotype 1a; format: cell-based; conditions: Hepatitis C virus, 1a genotype used for replicon data
property_measured: pEC50
pEC50 field: float, defined as -log10 of concentration (mol/L).

Prompt line: Given the molecule CNC(=O)c1c(-c2ccc(F)cc2)oc2ccc(-c3cc(C(=O)NC4(c5ccccn5)COC4)ccc3C)c(F)c12 , write its reported pEC50.
Response line: 7.62
